A collection of compounds and their measured absorption maximum
- ASSAY_SUMMARY: solvent given as SMILES
- COND: in ClCCl
Provide only the numeric value, understood in nm.

{"columns": ["COMPOUND", "absorption maximum [nm]"],
 "data": [
  ["ClP1(Cl)=NP(Cl)(Cl)=NP(Cl)(Oc2ccc3ccc4cccc5ccc2c3c45)=N1 (centres undefined)", 343],
  ["O=c1cc(-c2nc3ccccn3c2NC2CCCCC2)occ1OCc1ccccc1", 357],
  ["Cc1cc(C)n2c1C=C1c3ccccc3C(c3c[nH]c4ccccc34)=[N+]1[B-]2(F)F", 581]
]}

IN: Which value of absorption maximum has been reported for O=C(c1ccncc1)c1ccc(-n2c3ccc(-n4c5ccccc5c5ccccc54)cc3c3cc(-n4c5ccccc5c5ccccc54)ccc32)cc1 in the records?
OUT: 341.83

IN: How about this compound: F[B-]1(F)n2cccc2C(c2ccccc2)=C2C=CC=[N+]21
OUT: 500

IN: Now the same for COC(=O)C1=C(C(=O)OC)C2(c3cc(Cl)ccc3-c3c(Cl)cc(Cl)cc32)C2(/C=C/c3ccccc3)c3cc(OC)c(OC)cc3CCN12 (centres undefined)
OUT: 327

IN: Please answer likewise for CC(=O)O[B-]1(OC(C)=O)OC(/C=C/c2cccc3ccccc23)=CC(/C=C/c2cccc3ccccc23)=[O+]1
OUT: 472

IN: Subsequent entry: C=CCNc1ccc2ccc3oc4cc(=[N+]5CCCC5)ccc-4nc3c2c1
OUT: 588

IN: Subsequent entry: CN(C)c1ccc(C2=Nc3scc[n+]3[B-](F)(F)O2)cc1
OUT: 407
